# test.target: T1, MHC class I allele A*0301 (bound via biotin to streptavidin-coated plate)
# T1 construct: iTopia MHC class I monomer on the plate; placeholder peptide and b2M removed, then reconstituted with test peptide and fresh b2M; also called A3; HLA A3
# protocol: iTopia peptide binding assay
readout.kind: % of positive control peptide binding (%)
Please respond with the number in % and leave the unit unwritten.

Looking for the measured % of positive control peptide binding of HNPLADLSP (also called Peptide No 76) [5T4 9 mer peptide 76 HNPLADLSP] , can you help?
3

Looking for the measured % of positive control peptide binding of PAAGDGRLR (also called Peptide No 5) [5T4 9 mer peptide 5 PAAGDGRLR] , can you help?
4

Looking for the measured % of positive control peptide binding of RLDEVRAGA (also called Peptide No 65) [5T4 9 mer peptide 65 RLDEVRAGA] , can you help?
17

Looking for the measured % of positive control peptide binding of EDERQNRSF (also called Peptide No 94) [5T4 9 mer peptide 94 EDERQNRSF] , can you help?
4

Looking for the measured % of positive control peptide binding of LPAYVRNLF (also called Peptide No 45) [5T4 9 mer peptide 45 LPAYVRNLF] , can you help?
2

Looking for the measured % of positive control peptide binding of LCECSEAAR (also called Peptide No 33) [5T4 9 mer peptide 33 LCECSEAAR] , can you help?
0

Looking for the measured % of positive control peptide binding of ILNHIVPPE (also called Peptide No 90) [5T4 9 mer peptide 90 ILNHIVPPE] , can you help?
4

Looking for the measured % of positive control peptide binding of NRNLTEVPT (also called Peptide No 40) [5T4 9 mer peptide 40 NRNLTEVPT] , can you help?
0
